src = patent US20080096894A1

Test system: E. faecium
RUN DESCRIPTION: MIC, agar dilution, multipoint inoculator
Assay type: cell-based, Enterococcus faecium
CONDITIONS USED: Enterococcus faecium, NCTC7171, 18 h; E. faecium NCTC 7171; upper value of MIC reading; read-out: MIC
# MIC annotations
All answers are understood in µg/mL, so give the number only.

- MOLECULE: "N/C(=N\\N=C\\c1c2ccccc2cc2ccccc12)c1ccncc1 [Compound 4PYam]"
  MIC / µg/mL: 256
- MOLECULE: "CC(C)(C)c1cc(/C=N/N=C(\\N)c2ccncc2)c(O)c(C(C)(C)C)c1 [Compound 4PYcq]"
  MIC / µg/mL: 4
- MOLECULE: "CCC(C)(C)c1ccc(/C=N/N=C(\\N)c2cccnc2)cc1 [Compound 3PYaf]"
  MIC / µg/mL: 64

Qu. Which measured MIC value corresponds to CCC(C)(C)c1ccc(/C=N/N=C(\N)c2ccncc2)cc1 [Compound 4PYaf] ?
Ans. 64

Qu. Moving on to the next molecule: Cc1onc(-c2c(F)cccc2Cl)c1C(=O)N[C@@H]1C(=O)N2[C@@H]1SC(C)(C)[C@@H]2C(=O)O [Fluclox., Flucloxacillin, reference compound]
Ans. 1

Qu. Moving on to the next molecule: CC1(C)S[C@@H]2[C@H](NC(=O)[C@H](N)c3ccccc3)C(=O)N2[C@H]1C(=O)O [Amp., Ampicillin, reference compound]
Ans. 1

###

System: S. aureus
RUN DESCRIPTION: MIC, agar dilution, multipoint inoculator
Type: cell-based, Staphylococcus aureus
CONDITIONS USED: S. aureus NCTC 6571; upper value of MIC reading
Description: This activity was measured using a multipoint inoculator method as follows. The MIC for each compound was measured using an agar dilution method (Onda, H., et al., Int. J. Antimicrob. Agents. 18, 263 (2001)) (Mueller Hinton agar) by means of a multipoint inoculator delivering 10^4 colony forming units per spot.
METRIC: log10 MIC (log10 of the value in µg/mL)
Plainly stated, the numbers are log10 of MIC given in µg/mL.

The examples below pair each entry with its known result.
- MOLECULE: "NC(=NN=Cc1cc([N+](=O)[O-])ccc1O)c1cnccn1 [PZcj]"
  log10 MIC: 1.20
- MOLECULE: "NC(=NN=Cc1cc(O)c(O)cc1O)c1ccc2ccccc2n1 [QNcc]"
  log10 MIC: 2.41
- MOLECULE: "NC(=NN=Cc1cc(O)c(O)cc1O)c1cccnc1 [Compound 3PYcc]"
  log10 MIC: 2.41
- MOLECULE: "CN(C)CCCOc1ccc(C=NN=C(N)c2ccc3ccccc3n2)cc1 [QNds]"
  log10 MIC: 2.11
- MOLECULE: "NC(=NN=Cc1ccc(O)c(O)c1O)c1cnccn1 [PZcb]"
  log10 MIC: 2.41

Qu. Which measured log10 MIC value corresponds to NC(=NN=Cc1cc(Br)cc([N+](=O)[O-])c1O)c1ccccn1 [Compound 2PYcl] ?
Ans. 1.51

Qu. Moving on to the next molecule: O=Cc1cc([N+](=O)[O-])ccc1O [cj]
Ans. 0.60

Qu. Moving on to the next molecule: O=[N+]([O-])c1cc(Br)cc(C=NNc2ccccn2)c1O [HDcl]
Ans. 2.11

###

Tested on: S. aureus
RUN DESCRIPTION: MIC, agar dilution, multipoint inoculator
Assay type: cell-based, Staphylococcus aureus
CONDITIONS USED: S. aureus Cowan 1; upper value of MIC reading
METRIC: MIC (µg/mL)
All answers are understood in µg/mL, so give the number only.

The examples below pair each entry with its known result.
- CHEMICAL STRUCTURE: "NC(=NN=Cc1ccc(O)c(O)c1)c1ccc2ccccc2n1"
  UOM: "µg/mL"
  MIC: 128
- CHEMICAL STRUCTURE: "NC(=NN=Cc1ccc(O)c(O)c1O)c1cnccn1"
  UOM: "µg/mL"
  MIC: 256
- CHEMICAL STRUCTURE: "O=Cc1cc([N+](=O)[O-])ccc1O"
  UOM: "µg/mL"
  MIC: 16
- CHEMICAL STRUCTURE: "NC(=NN=Cc1cc(O)c(O)cc1O)c1cccnc1"
  UOM: "µg/mL"
  MIC: 256
- CHEMICAL STRUCTURE: "NC(=NN=Cc1cc(Br)cc([N+](=O)[O-])c1O)c1cccnc1"
  UOM: "µg/mL"
  MIC: 64
- CHEMICAL STRUCTURE: "NC(=NN=Cc1ccc(O)c(O)c1O)c1ccccn1"
  UOM: "µg/mL"
  MIC: 256

Qu. Which measured MIC value corresponds to `Oc1cc(O)c(C=NNc2ccccn2)c(O)c1` ?
Ans. 256

Qu. Moving on to the next compound: `NC(=NN=Cc1cc([N+](=O)[O-])ccc1O)c1ccccn1`
Ans. 32

Qu. Moving on to the next compound: `NC(=NN=Cc1c(O)ccc2ccccc12)c1ccncc1`
Ans. 128

Qu. Moving on to the next compound: `NC(=NN=Cc1c(O)ccc2ccccc12)c1cccnc1`
Ans. 256

Qu. Moving on to the next compound: `O=[N+]([O-])c1cc(Br)cc(C=NNc2ccccn2)c1O`
Ans. 128

Qu. Moving on to the next compound: `NC(=NN=Cc1cc([N+](=O)[O-])ccc1O)c1cnccn1`
Ans. 256
